# assay protocol: Visual observation of drug-loaded crosslinked PEG5K-(Ahx-(NAc-Cys))4/CA4 nanocarriers
# Assay type: physicochemical
# condition parameters: 1 mg drug/10 mg PEG5K-(Ahx-(NAc-Cys))4/CA4, crosslinked; effective concentration 2 mg drug/20 mg polymer per ml PBS
readout type: Observation

molecule="CC(=O)O[C@@]12CO[C@@H]1C[C@H](O)[C@@]1(C)C(=O)[C@H](O)C3=C(C)[C@@H](OC(=O)[C@H](O)[C@@H](NC(=O)OC(C)(C)C)c4ccccc4)C[C@@](O)([C@@H](OC(=O)c4ccccc4)[C@H]21)C3(C)C [Docetaxel, docetaxel]" observed="Clear solution"
molecule="COc1cccc2c1C(=O)c1c(O)c3c(c(O)c1C2=O)C[C@@](O)(C(=O)CO)C[C@@H]3O[C@H]1C[C@H](N)[C@H](O)[C@H](C)O1 [Doxorubicin]" observed="Clear solution"
molecule="CC[C@]1(O)C[C@@H]2CN(CCc3c([nH]c4ccccc34)[C@@](C(=O)OC)(c3cc4c(cc3OC)N(C)[C@H]3[C@@](O)(C(=O)OC)[C@H](OC(C)=O)[C@]5(CC)C=CCN6CC[C@]43[C@@H]65)C2)C1 [Vinblastine]" observed=Clear
molecule="CO[C@H]1C(=O)[C@]2(C)[C@@H](OC)C[C@H]3OC[C@@]3(OC(C)=O)[C@H]2[C@H](OC(=O)c2ccccc2)[C@]2(O)C[C@H](OC(=O)[C@H](O)[C@@H](NC(=O)OC(C)(C)C)c3ccccc3)C(C)=C1C2(C)C [Cabazitaxel, cabazitaxel]" observed="Clear solution"

Just for reference, patent US11369688B2 is where these values come from.
